The reported measurements were obtained from PubChem BioAssay AID1963960.

What viability, T/C was measured for each of the following?
System: MDA-MB-468 spheroids with HUVEC/MSC, viability
Experiment: Anticancer human tumor MDA-MB-468 cell line growth inhibition [PI3K];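 further: spheroids exposed to agents for seven days before readout; 100% = DMSO vehicle control viability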
Details: second compound 3.16 µM; first compound 0.0316 µM; hits give low values
Answer with a number only, understood to be in %.

Data point: CCN1CCN(Cc2ccc(Nc3ncc(F)c(-c4cc(F)c5nc(C)n(C(C)C)c5c4)n3)nc2)CC1 + Cc1nc(NC(=O)N2CCCC2C(N)=O)sc1-c1ccnc(C(C)(C)C(F)(F)F)c1 ; viability, T/C = 61.1

Reported viability, T/C for C[C@@H](NC(=O)c1ncnc(N)c1Cl)c1ncc(C(=O)Nc2cc(C(F)(F)F)c(Cl)cn2)s1 + Cc1nc(NC(=O)N2CCCC2C(N)=O)sc1-c1ccnc(C(C)(C)C(F)(F)F)c1 was 84.7

Quick note, viability, T/C for C=CC(=O)N1CCN(c2nc(=O)n(-c3c(C)ccnc3C(C)C)c3nc(-c4c(O)cccc4F)c(F)cc23)C(C)C1 (stereo not drawn) + Cc1nc(NC(=O)N2CCCC2C(N)=O)sc1-c1ccnc(C(C)(C)C(F)(F)F)c1 landed at 82.7

For Cn1nccc1Nc1nccc(-c2ccn(C(CO)c3ccc(Cl)c(F)c3)c(=O)c2)n1 (stereo not drawn) + Cc1nc(NC(=O)N2CCCC2C(N)=O)sc1-c1ccnc(C(C)(C)C(F)(F)F)c1 the compound record lists viability, T/C as 82.3

So, CCN1CCN(Cc2ccc(Nc3ncc(F)c(-c4cc(F)c5nc(C)n(C(C)C)c5c4)n3)nc2)CC1 + CC(Nc1ncnc2nc[nH]c12)c1cc2cccc(Cl)c2c(=O)n1-c1ccccc1 ? Its viability, T/C was 57.9

Item: Cn1ncnc1[C@H]1c2n[nH]c(=O)c3cc(F)cc(c23)N[C@@H]1c1ccc(F)cc1 + CC(Nc1ncnc2nc[nH]c12)c1cc2cccc(Cl)c2c(=O)n1-c1ccccc1 | viability, T/C: 51.9

Query C#Cc1c(F)ccc2cc(O)cc(-c3ncc4c(N5CC6CCC(C5)N6)nc(OCC56CCCN5CC(F)C6)nc4c3F)c12 (stereo not drawn) + CC(Nc1ncnc2nc[nH]c12)c1cc2cccc(Cl)c2c(=O)n1-c1ccccc1 yields viability, T/C of 63.4

Record Cn1ncnc1[C@H]1c2n[nH]c(=O)c3cc(F)cc(c23)N[C@@H]1c1ccc(F)cc1 + Cc1nc(NC(=O)N2CCCC2C(N)=O)sc1-c1ccnc(C(C)(C)C(F)(F)F)c1 , field viability, T/C: 37.6

====

Tested on: MDA-MB-468 spheroids with HUVEC/MSC, viability
Assay: Anticancer human tumor MDA-MB-468 cell line growth inhibition [PI3K];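 further: spheroids exposed to agents for seven days before readout; 100% = DMSO vehicle control viability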
Settings: second compound 0.00316 µM; first compound 0.01 µM; hits give low values
Measurement label: viability, T/C (%)
# number only, unit % dropped from output

// sample CCN1CCN(Cc2ccc(Nc3ncc(F)c(-c4cc(F)c5nc(C)n(C(C)C)c5c4)n3)nc2)CC1 + CC(Nc1ccc2c(c1)OCCn1cc(N3C(=O)OCC3C(F)F)nc1-2)C(N)=O , its viability, T/C was 98.2

// recorded viability, T/C for CC(=O)c1c(C)c2cnc(Nc3ccc(N4CCNCC4)cn3)nc2n(C2CCCC2)c1=O + CC(Nc1ccc2c(c1)OCCn1cc(N3C(=O)OCC3C(F)F)nc1-2)C(N)=O : 102

Please fill in: viability, T/C reported for Cn1ncnc1[C@H]1c2n[nH]c(=O)c3cc(F)cc(c23)N[C@@H]1c1ccc(F)cc1 + CC(Nc1ccc2c(c1)OCCn1cc(N3C(=O)OCC3C(F)F)nc1-2)C(N)=O = 96.8

The value of viability, T/C measured for the molecule CC(=O)c1c(C)c2cnc(Nc3ccc(N4CCNCC4)cn3)nc2n(C2CCCC2)c1=O + COc1c(OCCCN2CCOCC2)ccc2c3n(c(=NC(=O)c4cnc(N)nc4)nc12)CCN3 turned out to be 99.7

Input CCN1CCN(Cc2ccc(Nc3ncc(F)c(-c4cc(F)c5nc(C)n(C(C)C)c5c4)n3)nc2)CC1 + COc1c(OCCCN2CCOCC2)ccc2c3n(c(=NC(=O)c4cnc(N)nc4)nc12)CCN3 . Output viability, T/C: 90.8

// viability, T/C lookup, molecule = Cn1ncnc1[C@H]1c2n[nH]c(=O)c3cc(F)cc(c23)N[C@@H]1c1ccc(F)cc1 + COc1c(OCCCN2CCOCC2)ccc2c3n(c(=NC(=O)c4cnc(N)nc4)nc12)CCN3 , result: 79.1

Consider CC(C)n1nc(-c2ccc3oc(N)nc3c2)c2c(N)ncnc21 + COc1c(OCCCN2CCOCC2)ccc2c3n(c(=NC(=O)c4cnc(N)nc4)nc12)CCN3 . Its measured viability, T/C is 88.3

CC(C)n1nc(-c2ccc3oc(N)nc3c2)c2c(N)ncnc21 + CC(Nc1ccc2c(c1)OCCn1cc(N3C(=O)OCC3C(F)F)nc1-2)C(N)=O has a reported viability, T/C of 92.6
